- measurement.target: Cellular tumor antigen p53 (Homo sapiens) (UniProt P04637)
- Sequence (P04637 whole entry, looked up): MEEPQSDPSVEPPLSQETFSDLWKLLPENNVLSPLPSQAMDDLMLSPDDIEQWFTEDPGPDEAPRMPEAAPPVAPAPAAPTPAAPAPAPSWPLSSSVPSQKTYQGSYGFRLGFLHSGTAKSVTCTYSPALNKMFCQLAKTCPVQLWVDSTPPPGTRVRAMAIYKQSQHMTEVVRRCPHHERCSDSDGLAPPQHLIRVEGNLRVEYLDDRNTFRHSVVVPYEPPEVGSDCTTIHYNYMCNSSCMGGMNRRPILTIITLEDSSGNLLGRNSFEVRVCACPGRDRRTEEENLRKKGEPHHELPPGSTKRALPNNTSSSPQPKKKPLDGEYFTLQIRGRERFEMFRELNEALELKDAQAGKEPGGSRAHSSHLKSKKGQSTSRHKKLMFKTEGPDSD
- assay.notes: Primary qHTS for small molecule compounds that upregulate eGFP-tagged delta133p53alpha (in N-terminal) cells. (AID 2060322);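 note: cells pre-induced with doxycycline then dosed without doxycycline; series mostly up to about 56 µM; 0% = DMSO vehicle and 100% = reference activator; nearly all actives have a fitted effect of over 75% in size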
- run.parameters: NCI-H358 eGFP-delta133p53alpha fluorescence, 24 h; hits give high values
Results filed as inconclusive are left out.
measurement.type: activation (%)
Respond numerically; units are % and should not be typed.

Known results for molecules:
Query :: Fill in the blank: the reported activation of Oc1ccc(C2CNCc3sccc32)cc1O (centres undefined) is ____.
Result :: 8.23

Query :: Fill in the blank: the reported activation of CNc1c2c(nn1C)CCCC2 is ____.
Result :: -18.4

Query :: Fill in the blank: the reported activation of C[C@@H]1O[C@@H](O[C@H]2[C@H](O)[C@@H](O[C@@H]3O[C@H](CO)[C@@H](O)[C@H](O[C@@H]4O[C@H](CO)[C@@H](O)[C@H](O)[C@H]4O)[C@H]3O)[C@H](O[C@H]3CC[C@@]4(C)C(=CC[C@@H]5C4CC[C@@]4(C)C5C[C@@H]5OC6(CC[C@@](C)(CO[C@@H]7O[C@H](CO)[C@@H](O)[C@H](O)[C@H]7O)O6)[C@@H](C)[C@@H]54)C3)O[C@@H]2CO)[C@H](O)[C@H](O)[C@H]1OC1OC(CO)C(O)C(O)C1O (some centres undefined) is ____.
Result :: 13

Query :: Fill in the blank: the reported activation of COc1ncc(Nc2ncc([C@@H](C)N3CCN(S(C)(=O)=O)CC3)cc2-c2nc(C)nc(N)n2)cc1F is ____.
Result :: 21

Query :: Fill in the blank: the reported activation of CCCCC1CCN(CCCN2C(=O)CCc3ccccc32)CC1 is ____.
Result :: -5.25

***
Query :: Fill in the blank: the reported activation of CNC(=O)O[C@H]1COc2ccc(N3CCN(C4COC4)CC3)cc2[C@@H]1NC(=O)c1ccc(F)cc1 is ____.
Result :: -1.43

Query :: Fill in the blank: the reported activation of Nc1cccc(-c2cc3c(Oc4cccc(O)c4)ncnc3[nH]2)c1 is ____.
Result :: -3.57

Query :: Fill in the blank: the reported activation of COc1ccc(NC(=O)c2ccc(-c3ccc(-c4noc(C)n4)cc3C)cc2)cc1N1CCN(C)CC1 is ____.
Result :: -47.1

Query :: Fill in the blank: the reported activation of COc1ccc(/C=C/C(=O)O[C@@H]2[C@@H](O)[C@H](C)O[C@@H](O[C@H]3[C@@H]4C=CO[C@@H](O[C@H]5O[C@@H](CO)[C@H](O)[C@@H](O)[C@@H]5O)[C@@H]4[C@@]4(CO)O[C@@H]34)[C@@H]2OC(C)=O)cc1 is ____.
Result :: -12.5

Query :: Fill in the blank: the reported activation of O=C(Nc1ccc(C(O)(C(F)(F)F)C(F)(F)F)cc1)c1ccc(C(F)(F)F)cc1 is ____.
Result :: 0

---

- measurement.target: Cellular tumor antigen p53 (Homo sapiens)
- assay.notes: Primary qHTS for small molecule compounds that upregulate eGFP-tagged delta133p53alpha (in N-terminal) cells. (AID 2060322);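 note: cells pre-induced with doxycycline then dosed without doxycycline; series mostly up to about 56 µM; 0% = DMSO vehicle and 100% = reference activator; nearly all actives have a fitted effect of over 75% in size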
- run.parameters: NCI-H358 eGFP-delta133p53alpha fluorescence, 24 h; hits give high values
Inconclusive results are not listed.
# activation values compiled below
Respond numerically; units are % and should not be typed.

Query :: Fill in the blank: the reported activation of CN(C)CCN1CCN(c2cccc(Cl)c2)C1=O is ____.
Result :: -13

Query :: Fill in the blank: the reported activation of CCc1c(CC(N)=O)c2cc(OCCCP(=O)(O)O)ccc2n1Cc1ccccc1 is ____.
Result :: 2.86

In the following, a different compound is considered.
Query :: Fill in the blank: the reported activation of O=C(O)Cn1c(C(=O)Nc2nc(-c3ccccc3Cl)cs2)cc2ccccc21 is ____.
Result :: 5.08

Each recorded value in this set is attributed to PubChem BioAssay (NCATS).
